Tested on: Rattus norvegicus
Experiment: Percentage change in heart rate from the initial value in urethane-anesthetized rats at 3 mg/kg intravenous dose
Format: functional
Listing of entries alongside the reported Change.
Provide only the numeric value, understood in %.

Study these solved cases before continuing.
compound: COc1cc2c(cc1OC)CN(C1CCCN(CCCOc3ccc4ccccc4c3)C1)CC2 (centres undefined)
Change / %: 23
--
compound: COc1cc2c(cc1OC)CN(C1CCCN(CCCCc3ccccc3)C1)CC2 (centres undefined)
Change / %: 23
--
compound: COc1cc2c(cc1OC)CN(C1CCCN(CCCOc3ccccc3)C1)CC2 (centres undefined)
Change / %: 40
--
compound: COc1cc2c(cc1OC)CN(C1CCCN(CCCOc3ccc4c(c3)CCC4)C1)CC2 (centres undefined)
Change / %: 38
--
compound: COc1ccc(OCCCN2CCCC(N3CCc4cc(OC)c(OC)cc4C3)C2)cc1OC (centres undefined)
Change / %: 47
--
compound: COc1ccc(OCCCN2CCCC(N3CCc4cc(OC)c(OC)cc4C3)C2)cc1 (centres undefined)
Change / %: 40
--
compound: COc1cc2c(cc1OC)CN(C1CCCN(Cc3ccccc3)C1)CC2 (centres undefined)
Change / %: 33
--
compound: COc1ccc(CCN(C)CCCN2CCc3cc(OC)c(OC)cc3CC2=O)cc1OC [ZATEBRADINE]
Change / %: 47

Look up Change for this compound: COc1cc2c(cc1OC)CN(C1CCCN(CCCOc3ccc4c(c3)OCO4)C1)CC2 (centres undefined)
47
